Would you mind telling me the reported TGI of each entry?
- Tested on: NCI-H460 lung
- Protocol Summary: NCI tumour cell line growth inhibition, 48 h

>  <Molecule>
C/C(=C\c1ccn(-c2ccc(N)c(C(F)(F)F)c2)n1)[C@@H]1C[C@@H]2O[C@]2(C)CCC[C@H](C)[C@H](O)[C@@H](C)C(=O)C(C)(C)[C@@H](O)CC(=O)O1

>  <Obs Value>
6.21 µM

$$$$
>  <Molecule>
CN1C(=O)n2c(nc3ccccc32)C(N=[N+]=[N-])(N=[N+]=[N-])C1=O (centres undefined)

>  <Obs Value>
> 100 µM

$$$$
>  <Molecule>
CCOC(=O)C1Cc2c(ccc(OC)c2OC)C(=O)C1N (centres undefined)

>  <Obs Value>
> 100 µM

$$$$
>  <Molecule>
N=c1c2c(ncn1N)Oc1c(c(-c3ccccc3)nn1-c1ccccc1)C2c1ccc(Cl)cc1 (centres undefined)

>  <Obs Value>
2.99 µM

$$$$
>  <Molecule>
[N-]=[N+]=NC1(N=[N+]=[N-])C(=O)NN=C(c2ccccc2)C1=O (centres undefined)

>  <Obs Value>
> 100 µM

$$$$

Answer for every listed entry: what is its TGI? The entries follow.
1. CCOC(=O)CSc1nc(-c2ccc(OC)cc2)c(C#N)c(=O)[nH]1
2. CCSC(=Nc1ccccc1)SC
3. O=S(=O)(/C=C/C=C/S(=O)(=O)c1ccccc1)c1ccccc1
4. COc1cc2c(c(OC)c1OC)-c1ccc([O-])c(=O)cc1[C@@H](NC(C)=O)CC2.COc1cc2c(c(OC)c1OC)-c1ccc([O-])c(=O)cc1[C@@H](NC(C)=O)CC2.[Cu+2]
5. COc1cc2[nH]c(C(=O)c3cc(OC)c(OC)c(OC)c3)c(N)c2cc1C#CCO
6. Cc1cc(Cl)nc(NC(=O)CSc2ccc(Cl)cc2)n1
7. CN1CCN(C(=O)c2ccc(NC(=O)Nc3ccc(N(C)c4ccnc(Nc5ccc(CS(C)(=O)=O)cc5)n4)cc3)cc2)CC1

1. > 100 µM
2. > 100 µM
3. 16.9 µM
4. 15.7 µM
5. > 100 µM
6. > 100 µM
7. > 25 µM

Answer for every listed entry: what is its TGI? The entries follow.
1. CC[O-].CC[O-].[O-]c1ccccc1C=Nc1ccccc1.[O-]c1ccccc1C=Nc1ccccc1.[Ti+4]
2. C/C(=N\O)c1sc(-n2nc(-c3ccccc3)cc2-c2ccccc2)nc1C
3. COC(=O)C1=CC(O)CCC1c1ccc(OC)cc1 (centres undefined)
4. CCN1C(C)=NC2C(=O)c3ccccc3C(=O)C21 (centres undefined)
5. CCc1ccccc1NC(=O)/C(CC(=O)c1c(C)n([O-])c2ccccc2[n+]1=O)=N\NS(=O)(=O)c1ccc(C)cc1

> 100 µM
21.6 µM
> 100 µM
> 100 µM
> 100 µM

Answer for every listed entry: what is its TGI? The entries follow.
1. CCC[CH2][Sn]1([CH2]CCC)[O]C(c2ccccn2)S(=O)(=O)[O]1 (centres undefined)
2. COc1ccc(C)c2c1N[C@](C)([C@]1(C)Nc3c(OC)ccc(C)c3C1=O)C2=O

30.4 µM
> 100 µM
